# Test system: NanoBiT
# test-summary: Negative screening HiBiT assay (NanoBiT activity)
# Format: cell-based
# assay-conditions: 100 μM drug
Structures can show the parent of a compound that is named as a salt.
parameter-measured: Negative Screening HiBiT Assay % Inhibition (100 μM) (%)

compound	tested-system	measured
CCCCc1oc2ccc(NS(C)(=O)=O)cc2c1C(=O)c1ccc(OCCCN(CCCC)CCCC)cc1 [Dronedarone hydrochloride]	NanoBiT	86
O=C1CCc2ccc(OCCCCN3CCN(c4cccc(Cl)c4Cl)CC3)cc2N1 [Aripiprazole]	NanoBiT	21
CC[C@H](C)[C@H]1O[C@]2(CC[C@@H]1C)C[C@@H]1C[C@@H](C/C=C(\C)[C@@H](O[C@H]3C[C@H](OC)[C@@H](O[C@H]4C[C@H](OC)[C@@H](O)[C@H](C)O4)[C@H](C)O3)[C@@H](C)/C=C/C=C3\CO[C@@H]4[C@H](O)C(C)=C[C@@H](C(=O)O1)[C@]34O)O2 [Ivermectin]	NanoBiT	4

* * *

# test-summary: in vitro
# assay-conditions: African green monkey, VeroE6 CC50, VERO E6 cells, CellTiter-Glo
compounds and their reported CC50
parameter-measured: CC50 (µM)

compound	unit-of-measurement	comparison-sign	measured
CC1(C)CCC(CN2CCN(c3ccc(C(=O)NS(=O)(=O)c4ccc(NCC5CCOCC5)c([N+](=O)[O-])c4)c(Oc4cnc5[nH]ccc5c4)c3)CC2)=C(c2ccc(Cl)cc2)C1	µM	=	17.3
Clc1ccc(COC(Cn2ccnc2)c2ccc(Cl)cc2Cl)c(Cl)c1 (stereo not drawn)	µM	=	14
O=C1CCc2ccc(OCCCCN3CCN(c4cccc(Cl)c4Cl)CC3)cc2N1	µM	=	14
C[C@@H]1CCO[C@H]2Cn3cc(C(=O)NCc4ccc(F)cc4F)c(=O)c(O)c3C(=O)N12 [Dolutegravir sodium]	µM	>	100
Cc1cc(C#N)cc(C)c1Oc1nc(Nc2ccc(C#N)cc2)nc(N)c1Br	µM	>	100
CC[C@H](C)[C@H]1O[C@]2(CC[C@@H]1C)C[C@@H]1C[C@@H](C/C=C(\C)[C@@H](O[C@H]3C[C@H](OC)[C@@H](O[C@H]4C[C@H](OC)[C@@H](O)[C@H](C)O4)[C@H](C)O3)[C@@H](C)/C=C/C=C3\CO[C@@H]4[C@H](O)C(C)=C[C@@H](C(=O)O1)[C@]34O)O2	µM	=	11.9

* * *

# tested-system: RBD-ACE2 attachment (RBD of viral spike protein and ACE2 receptor) (Severe acute respiratory syndrome coronavirus 2, UniProt P0DTC2)
# test-summary: cell-based
# Design: species or system SARS-CoV-2; human
# assay-conditions: EC50 RBD Attachment

smiles-structure	EC50 / µM
OCCOc1ccc(/C(=C(/CCCl)c2ccccc2)c2ccccc2)cc1	56.2

* * *

# Test system: NanoBiT
# test-summary: Negative screening HiBiT assay (NanoBiT activity)
# Format: cell-based
# assay-conditions: 20 μM drug
parameter-measured: Negative Screening HiBiT Assay % Inhibition (20 μM) (%)

compound	measured
COCCOC(=O)C1=C(C)NC(C)=C(C(=O)OC(C)C)C1c1cccc([N+](=O)[O-])c1 (stereo not shown)	79
Clc1ccc(COC(Cn2ccnc2)c2ccc(Cl)cc2Cl)c(Cl)c1 (stereo not shown) [Miconazole]	6
CC(C)(C)c1nc(-c2cccc(NS(=O)(=O)c3c(F)cccc3F)c2F)c(-c2ccnc(N)n2)s1	88
CCOC(=O)C1=C(C)NC(C)=C(C(=O)OC)C1c1cccc(Cl)c1Cl (stereo not shown)	88

* * *

# Tested on: NanoBiT
# test-summary: Negative screening HiBiT assay (NanoBiT activity)
# Type: cell-based
# assay-conditions: 100 μM drug
Where a name gives a salt, the structure may show the parent alone.
parameter-measured: Negative Screening HiBiT Assay % Inhibition (100 μM) (%)

compound	tested-system	measured
CC(C)(C)c1nc(-c2cccc(NS(=O)(=O)c3c(F)cccc3F)c2F)c(-c2ccnc(N)n2)s1	NanoBiT	97
CN(C)c1ccc(C(=C2C=CC(=[N+](C)C)C=C2)c2ccc(N(C)C)cc2)cc1	NanoBiT	86
O=C1C(O)=C([C@H]2CC[C@H](c3ccc(Cl)cc3)CC2)C(=O)c2ccccc21	NanoBiT	96
CC(=O)Oc1ccccc1C(=O)Nc1ncc([N+](=O)[O-])s1 [Nitazoxanide]	NanoBiT	95
Nc1ccc(/N=N/c2ccccc2)c(N)n1 [Phenazopyridine hydrochloride]	NanoBiT	83
Clc1ccc(COC(Cn2ccnc2)c2ccc(Cl)cc2Cl)c(Cl)c1 (centres unmarked) [Miconazole]	NanoBiT	15
C[C@@H]1CCO[C@H]2Cn3cc(C(=O)NCc4ccc(F)cc4F)c(=O)c(O)c3C(=O)N12 [Dolutegravir sodium]	NanoBiT	62
CCCCCCCCCCCCCCCC[N+](C)(C)CCN(Cc1ccc(OC)cc1)c1ncccn1 [Thonzonium Bromide]	NanoBiT	52

* * *

# System: spike-based pseudovirus (wild type) on SmBiT-ACE2 HeLa cells
# test-summary: microbe, parasite or virus in culture
# Type: cell-based, SARS-CoV-2
# assay-conditions: Pseudovirus, HeLa, read-out: EC50 pseudovirus neutralization assay

smiles-structure	tested-system	unit-of-measurement	EC50
Cc1cc(C#N)cc(C)c1Oc1nc(Nc2ccc(C#N)cc2)nc(N)c1Br	spike-based pseudovirus (wild type) on SmBiT-ACE2 HeLa cells	nM	5.8
